Test system: A498 renal
Assay: NCI-60 one-dose screen, 48 h (100 = growth as untreated, 0 = no growth, -100 = all killed)
Conditions: 10 µM unless noted
The panel holds about 83,000 compounds, 20% with a hit somewhere; the sample as a whole holds those more often.
The threshold is inclusive: growth of exactly 80% counts as criterion met; values below receive criterion not met.

Below are worked cases with known answers.
1. COC(=O)[C@@]1(C)CC[C@]2(C)CC[C@]3(C)C4=CC=C5C(=CC(=O)C(O)=C5C)[C@]4(C)[C@@H](O)C[C@@]3(C)[C@@H]2C1; criterion met
2. O=C(/C=C/C12c3ccccc3C(c3ccccc31)C1C(=O)NC(=O)C12)c1ccc(Cl)cc1Cl (centres undefined); criterion not met
3. CC(C)(C)c1ccc(S(=O)(=O)Oc2ccc(-c3sc4cc(OS(=O)(=O)c5ccc(C(C)(C)C)cc5)ccc4c3C(=O)c3ccc(OCCN4CCCCC4)cc3)cc2)cc1; criterion met
4. CS(=O)(=O)Nc1cc(-c2ccc3ncnc(Nc4ccc5c(cnn5Cc5ccccc5F)c4)c3c2)cnc1Cl; criterion not met
5. O=C(c1ccc(Br)cc1)C(Br)C(c1ccc(Cl)cc1)C(c1ccccc1)[N+](=O)[O-] (centres undefined); criterion met

Could you please find out whether NCCCNc1nc2ccccc2c2c(=O)c3cc(Cl)ccc3sc12 has growth that meets 80% or exceeds it?
criterion not met

Check the entry CC(=O)c1sc(-c2ccc(F)cc2)cc1O : does growth equal or exceed 80%?
criterion met

Evaluate Cc1ccc2c(c1)sc1nc(-c3c[nH]c4ccccc34)c(Nc3ccccc3)n12 : growth at minimum 80%?
criterion met

Is growth for CCOc1ncc([N+](=O)[O-])c(OCC)n1 at or above 80%?
criterion met

----------
System: SF-539 CNS
Assay: NCI-60 one-dose screen, 48 h
Details: 10 µM unless noted
This is part of a sample that, as a whole, favours compounds with a hit. Of some 83,000 tested, about 20% had one in any assay. Activity calls are given as the source filed them. The calls were made as follows: active = growth percent below 10; inactive = the rest.
Entry note: the call must match one of active, inactive

Known results for molecules:
1. COC1C(O)CC(OC2CC(OC3CC(O[C@@H]4C(=O)c5c(cc6cc(OC7CC(OC8CC(O)C(O)C(C)O8)C(O)C(C)O7)c(C)c(O)c6c5O)CC4[C@H](OC)[C@@H](O)C(C)=O)OC(C)C3O)OC(C)C2O)OC1C (stereo not given in full); active
2. COc1ccc(Cl)cc1Nc1nc(C(F)(F)F)ccc1C(=O)N/N=C/c1ccc([N+](=O)[O-])cc1; inactive
3. CCN(CC)CCCC(Cc1ccccc1)Nc1c2ccc(Cl)cc2nc2ccc(OC)cc12 (stereo not given); active
4. CCN1C2CCC1/C(=C\c1ccccc1)C(=O)/C2=C/c1ccccc1; inactive

Moving on to the next molecule.
Can you look up the reported call for Cc1cn(C)cn1 for me?
inactive

----------
Test system: RXF 393 renal
Assay: NCI-60 one-dose screen, 48 h (100 = growth as untreated, 0 = no growth, -100 = all killed)
Settings: 10 µM unless noted
The panel holds about 83,000 compounds, 20% with a hit somewhere; the sample as a whole holds those more often.
VALUE KIND: growth (%)
Numbers only; they are read as %.

Study these solved cases before continuing.
1) CS(=O)(=O)Nc1cc(-c2ccc3ncnc(Nc4ccc(OCc5ccccn5)c(Cl)c4)c3c2)cnc1Cl; -31.4
2) CN(C)Cc1ccc(NC(=O)c2cncc(C#Cc3cnc(N)c4ncccc34)c2)cc1C(F)(F)F; -49.1
3) Cc1nc2sc(C(=O)Nc3cccc(Cl)c3C)c(N)c2cc1C(=O)/C=C/c1ccccc1; -82.8

I have this compound here, Cc1cc(=O)oc2cc(Oc3nc(Br)cn4c(Br)cnc34)ccc12 , and I need its recorded growth.
44.2

If you can, please state the reported growth value of O=C(/C=C/c1ccccc1Cl)c1cccc(OCCCCOc2cccc(C(=O)/C=C/c3ccccc3Cl)c2)c1 .
99.6

Fill in: growth of CC1(C)CC(=O)C2=C(C1)C(c1ccc(Cl)cc1)n1ncc(C#N)c1N2 (stereo not drawn) is ___
107

Name the reported growth value associated with the compound CCCCCc1ccc(S(=O)(=O)Nc2ccc3nc(N)oc3c2)cc1
77.4

So what does the record say about growth for COc1cc2c(cc1OCCCN1CCN(C(=S)SCCC(C#N)(c3ccccc3)c3ccccc3)CC1)N=C[C@@H]1CCCN1C2=O ?
-92.9

Please look up its growth: O=C(Nc1ccccc1O)c1ccc(CNc2ccnc(C(F)(F)F)c2)cc1
80.6

Query (compound): COC(=O)/C(CCC=C(C)C)=C1\[C@@H](OC(C)=O)C[C@@]2(C)[C@H]1C/C(=N/O)[C@H]1[C@@]3(C)CC/C(=N\O)[C@@H](C)[C@@H]3CC[C@@]12C ; field requested: growth
104

Dear colleague, I am looking for the recorded growth of the following compound: CCn1cc(C(=O)N/N=C/c2cccc(F)c2)c(=O)c2cc(F)c(N3CCNC(C)C3)c(F)c21 (stereo not drawn)
-21.6
